- Tested on: normal cells FHC
- Assay protocol: cells
- Run parameters: read-out: FHC IC50
Attribute: pIC50
In plain terms, pIC50 is the concentration in mol/L turned into minus its base-10 logarithm.

Consider the reported pIC50 for these compounds:
* CC(C)(C)Nc1c(-c2ccncc2)nc2cnccn12 [Compound 3a] | 3.71
* CC(C)(C)Nc1c(-c2ccsc2)nc2cnccn12 [Compound 4a] | 4.12
* c1ccc(CNc2c(-c3ccncc3)nc3cnccn23)cc1 [Compound 3c] | 4.01

# evaluate next
Query block: API: value(readout=pIC50, system=normal cells FHC) for record c1ccc(-c2nc3cnccn3c2NC2CCCCC2)cc1 [Compound 1b]
Result block: 3.91

###

- Tested on: chronic myelogenous leukaemia
- Assay protocol: cells
- Run parameters: K652, 48 h, read-out: IC50 K652
Param label: returns Y when IC50 < 70 µM, returns N otherwise, including exact equality.

Observe how each entry below is paired with its result.
• COc1ccc(Nc2c(-c3ccccc3)nc3cnccn23)cc1 = N
• Oc1ccc(-c2nc3cnccn3c2NC2CCCCC2)cc1O = Y
• CC(C)(C)Nc1c(-c2ccccc2)nc2cnccn12 = N
• c1cn2c(NC3CCCCC3)c(-c3ccsc3)nc2cn1 = Y
• Oc1ccc(-c2nc3cnccn3c2NCc2ccccc2)cc1O = N

Query block: # TODO verify IC50 < 70 µM strictly for this compound: CC(C)(C)Nc1c(-c2ccsc2)nc2cnccn12
Result block: Y

Query block: Bench note: check whether COc1ccc(Nc2c(-c3ccncc3)nc3cnccn23)cc1 shows IC50 below 70 µM
Result block: Y

Query block: Confirm or reject: IC50 of c1ccc(CNc2c(-c3ccncc3)nc3cnccn23)cc1 lies strictly below 70 µM
Result block: Y

Query block: Criterion: IC50 strictly below 70 µM. Is it met by CC(C)(C)Nc1c(-c2ccncc2)nc2cnccn12 ?
Result block: Y

###

Reported average selectivity over three cancer cells by item:
- System: normal cells FHC
- Assay protocol: cells
- Run parameters: normal cells FHC vs MCF7, HCT116, K652
Your answer is read as fold, so omit the unit and give the number.

Solved entries (count: 3):
* c1ccc(-c2nc3cnccn3c2NC2CCCCC2)cc1 | 43
* CC(C)(C)Nc1c(-c2ccncc2)nc2cnccn12 | 41
* c1ccc(CNc2c(-c3ccncc3)nc3cnccn23)cc1 | 15

Continue with the compound presented below.
Query block: Could you share which average selectivity over three cancer cells value was measured for CC(C)(C)Nc1c(-c2ccsc2)nc2cnccn12 ?
Result block: 3.5

###

- Assayed system: CDK9 (Homo sapiens, UniProt P50750)
- Construct: purchased BPS Biosciences (San Diego, CA, USA) 79628
- Sequence (P50750 whole entry): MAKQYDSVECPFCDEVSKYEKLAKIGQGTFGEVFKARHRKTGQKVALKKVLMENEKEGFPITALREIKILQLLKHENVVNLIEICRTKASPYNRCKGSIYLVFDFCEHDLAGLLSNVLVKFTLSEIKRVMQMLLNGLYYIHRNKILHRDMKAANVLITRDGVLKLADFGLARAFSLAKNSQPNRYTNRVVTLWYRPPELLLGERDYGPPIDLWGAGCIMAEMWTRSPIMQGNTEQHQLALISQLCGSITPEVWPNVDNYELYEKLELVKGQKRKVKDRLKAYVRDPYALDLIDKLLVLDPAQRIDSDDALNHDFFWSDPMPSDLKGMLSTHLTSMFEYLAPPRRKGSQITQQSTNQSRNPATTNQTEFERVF
- Sequence (O60563 whole entry partner): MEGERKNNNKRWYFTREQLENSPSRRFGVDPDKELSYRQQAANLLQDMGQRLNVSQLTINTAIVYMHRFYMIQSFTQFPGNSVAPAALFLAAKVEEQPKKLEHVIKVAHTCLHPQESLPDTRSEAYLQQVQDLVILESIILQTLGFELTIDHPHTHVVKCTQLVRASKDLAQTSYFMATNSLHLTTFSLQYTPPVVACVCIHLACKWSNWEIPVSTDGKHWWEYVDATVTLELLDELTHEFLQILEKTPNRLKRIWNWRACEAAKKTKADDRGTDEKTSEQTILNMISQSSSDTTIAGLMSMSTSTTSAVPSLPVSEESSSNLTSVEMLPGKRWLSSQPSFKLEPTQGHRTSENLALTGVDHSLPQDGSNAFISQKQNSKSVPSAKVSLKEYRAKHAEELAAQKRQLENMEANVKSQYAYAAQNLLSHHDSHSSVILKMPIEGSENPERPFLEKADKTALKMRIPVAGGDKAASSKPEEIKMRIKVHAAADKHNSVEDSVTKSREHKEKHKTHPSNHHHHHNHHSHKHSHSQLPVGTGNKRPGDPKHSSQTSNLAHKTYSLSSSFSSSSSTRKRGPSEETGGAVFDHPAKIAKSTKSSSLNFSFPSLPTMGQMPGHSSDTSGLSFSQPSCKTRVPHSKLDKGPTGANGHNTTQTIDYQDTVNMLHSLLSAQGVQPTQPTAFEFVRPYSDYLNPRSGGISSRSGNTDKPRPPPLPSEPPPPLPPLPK
- Assay protocol: biochemical
- Run parameters: biochemical assay; mean ± standard deviation of three individual experiments; read-out: CDK9 Inhibitory Activity IC50
pIC50: −log10 of the molar value.
# pIC50 >= 6 gives MET, anything below gives NOT MET

Here are 2 molecules together with their reported answers.
* COc1ccc(Nc2c(-c3ccsc3)nc3cnccn23)cc1 [Compound 4d] | NOT MET
* CC(C)(C)Nc1c(-c2ccncc2)nc2cnccn12 [Compound 3a] | MET

Query block: Decide: pIC50 of c1cc(-c2nc3cnccn3c2NC2CCCCC2)ccn1 [Compound 3b] >= 6?
Result block: MET

Query block: Threshold query (pIC50 >= 6) on c1ccc(CNc2c(-c3ccncc3)nc3cnccn23)cc1 [Compound 3c]
Result block: MET

Query block: Reported pIC50 reaches at least 6 for COc1ccc(Nc2c(-c3ccc(O)c(O)c3)nc3cnccn23)cc1 [Compound 2d] ?
Result block: NOT MET

###

- Assayed system: CDK9 (Homo sapiens, UniProt P50750)
- Construct: purchased BPS Biosciences (San Diego, CA, USA) 79628
- Assay protocol: biochemical
- Run parameters: biochemical assay; mean ± standard deviation of three individual experiments; read-out: CDK9 Inhibitory Activity IC50
Property: pIC50; scope: individual compounds
Please treat pIC50 as minus the base-10 logarithm of the molar concentration.

Query block: Query: pIC50; subject: COc1ccc(Nc2c(-c3ccncc3)nc3cnccn23)cc1
Result block: 6.10

Query block: // lookup pIC50 for Oc1ccc(-c2nc3cnccn3c2NCc2ccccc2)cc1O
Result block: 6.51

Query block: Data request, read-out pIC50, for COc1ccc(Nc2c(-c3ccccc3)nc3cnccn23)cc1
Result block: 5.98

Query block: So what's the measured pIC50 for this one? c1ccc(-c2nc3cnccn3c2NC2CCCCC2)cc1
Result block: 6.60

Query block: Consider the compound CC(C)(C)Nc1c(-c2ccsc2)nc2cnccn12 and give its measured pIC50.
Result block: 6.14

Query block: For the compound CC(C)(C)Nc1c(-c2ccccc2)nc2cnccn12 , what pIC50 is on record?
Result block: 5.78

###

- Assay protocol: Cytotoxicity on target cells in the antiviral assay (crystal violet)
Label Criterion met when CC50 is strictly below 400 µM; at or above that, label Criterion not met.

Completed entries (count: 3):
- c1ccc(-c2nc3cnccn3c2NC2CCCCC2)cc1: Criterion met
- NC(=O)c1ncn([C@@H]2O[C@H](CO)[C@@H](O)[C@H]2O)n1 [Ribavirin, reference compound]: Criterion met
- CC(C)(C)Nc1c(-c2ccncc2)nc2cnccn12: Criterion not met

In the following, a different molecule is considered.
Query block: Identify whether the molecule c1ccc(CNc2c(-c3ccncc3)nc3cnccn23)cc1 records CC50 below 400 µM.
Result block: Criterion not met

###

- System: chronic myelogenous leukaemia
- Assay protocol: cells
- Run parameters: K652, 48 h, read-out: IC50 K652
pIC50: −log10 of the molar value.
pIC50 vs 4: at or above is Met, below is Not met.

• c1ccc(-c2nc3cnccn3c2NC2CCCCC2)cc1 = Met

Query block: Is pIC50 for c1cc(-c2nc3cnccn3c2NC2CCCCC2)ccn1 at or above 4?
Result block: Met

Query block: In plain terms: is recorded pIC50 at least 4 for COc1ccc(Nc2c(-c3ccc(O)c(O)c3)nc3cnccn23)cc1 ?
Result block: Not met

Query block: I'd appreciate it if you could say whether CC(C)(C)Nc1c(-c2ccc(O)c(O)c2)nc2cnccn12 has pIC50 at least equal to 4.
Result block: Met

###

- Assayed system: CDK9 (Homo sapiens)
- Construct: purchased BPS Biosciences (San Diego, CA, USA) 79628
- Assay protocol: biochemical
- Run parameters: biochemical assay; mean ± standard deviation of three individual experiments; read-out: CDK9 Inhibitory Activity IC50
Experimental endpoint: pIC50
Conceptually, pIC50 converts a concentration in mol/L into minus its log10.

• Oc1ccc(-c2nc3cnccn3c2NC2CCCCC2)cc1O = 6.05
• CC(C)(C)Nc1c(-c2ccc(O)c(O)c2)nc2cnccn12 = 5.94
• c1ccc(CNc2c(-c3ccsc3)nc3cnccn23)cc1 = 6.15
• c1ccc(CNc2c(-c3ccccc3)nc3cnccn23)cc1 = 6.00

Now consider the entry below.
Query block: Reported pIC50 for c1cn2c(NC3CCCCC3)c(-c3ccsc3)nc2cn1 : what is it?
Result block: 5.88
